Hi there, I'd appreciate the recorded koff for every entry that follows.
- target entity: T1, CTNI quality control recombinant protein (PK2-CTNI-1, 170120, produced by the applicant) (human, UniProt P19429 2-210, limits assumed)
- T1 construct: also called cardiac troponin I
- T1 sequence (P19429 2-210 limits assumed): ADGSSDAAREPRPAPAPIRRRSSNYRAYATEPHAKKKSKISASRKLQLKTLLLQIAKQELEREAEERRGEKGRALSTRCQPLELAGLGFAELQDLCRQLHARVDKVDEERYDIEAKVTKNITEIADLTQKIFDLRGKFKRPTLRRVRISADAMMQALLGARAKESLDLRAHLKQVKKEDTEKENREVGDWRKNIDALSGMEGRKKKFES
- experiment notes: AMC sensor kinetics, antibody captured, cTnI analyte
Please append the unit to your numeric answer.

stdin: Input Mutation 1-45 (antibody, V domains shown, built as for Mutation 1) VH: EVQLQQSGAELVKPGASVKLSCTASGFNIKDYYMHWMKQRTEQGLDWIGRIDPEDGETKYAPEFQGKATITADTSSNTAYLQLSTLTSEDTAVYYCARYYSSYVPFVYWGQGTLVTASA VL: DVVMTQTPLSLSVSLGDQASISCRSSQSLIYSNRHTYLHWYLQKPGQSPKLLIFQVSNRFSGVPDRFSGSGSGTDFTLKINRVEAEDLGVYFCSQSTHIPFTFGSGTKLEIKR , output reported koff.
stdout: 3.24e-05 s⁻¹

stdin: Please indicate koff recorded for Mutation 1-8 (antibody, V domains shown, built as for Mutation 1) VH: EVQLQQSGAELVKPGASVKLSCTASGFNLKDYFMHWMKQRTEQGLDWIGRIDPEDGETRYAPEFQGKATITADTSSNTAYLQLSTLTSEDTAVYYCARYYSSYLPFVYWGQGTLVTASA VL: DVVMTQTPLSLSVSLGDQASISCRSSQSLIYSNRHTYLHWYLQKPGQSPKLLIFQLSNRFSGVPDRFSGSGSGTDFTLKINRVEAEDLGVYFCSQSTHLPFTFGSGTKLEIKR
stdout: 2.58e-05 s⁻¹
